Attribute: RP-LC retention time
# RUN DESCRIPTION: gradient 5% acetonitrile 3 min, to 50% in 2 min, to 85% in 15 min, held 3 min, 100 µL/min
# CONDITION DETAILS: column: Zorbax Extend-C18 2.1 x 50 mm; eluents: water / acetonitrile, 0.1% formic acid
Report the value in s with no unit label.

- COMPOUND: "O=C(Nc1ccc(F)cc1Cl)c1cc2n(n1)CCCC2"
  RP-LC retention time, s: 1010

// Input: Cc1c(C(=O)N2CCN(S(C)(=O)=O)CC2)nnn1-c1nc2c(s1)CCCC2 . Output its RP-LC retention time only.
798

Consider the compound CC(C)Oc1ccc(NC(=O)C2CCN(S(C)(=O)=O)c3ccccc3O2)cc1 (stereo not given) and give its recorded RP-LC retention time.
935

Return value of RP-LC retention time for input CCn1nnc2ccc(-c3noc(Cc4ccccc4C)n3)cc21 , no commentary.
1030

Supply RP-LC retention time value. Item: O=C(NCc1ccco1)c1cc2c(s1)CCN(C(=O)c1ccccc1)C2
758

====

# RUN DESCRIPTION: gradient 5% acetonitrile 3 min, to 50% in 2 min, to 85% in 15 min, held 3 min, 100 µL/min
# CONDITION DETAILS: column: Zorbax Extend-C18 2.1 x 50 mm; eluents: water / acetonitrile, 0.1% formic acid
Our labelling divides records by RP-LC retention time into ranges: class 0 = under 700 s, class 1 = from 700 s up to 800 s, class 2 = 800 s and over

- MOLECULE: "Cc1cc(C)cc(-c2nnc(Cc3nc(-c4ccccc4)no3)o2)c1"
  LABEL: "class 2"
- MOLECULE: "Cc1ccc(S(=O)(=O)Nc2ccc3c(c2)CCC(=O)N3CC(C)C)c(C)c1"
  LABEL: "class 2"
- MOLECULE: "CCCOC(=O)c1ccc(Oc2c(C)oc3cc(OCC#N)ccc3c2=O)cc1"
  LABEL: "class 2"
- MOLECULE: "Cc1sc(C)c(S(=O)(=O)Nc2ccc(Cl)cc2)c1-c1cc(C(F)(F)F)on1"
  LABEL: "class 2"
- MOLECULE: "CCN(CC)CCNC(=O)C1c2ccccc2C(=O)N(C)C1c1cccs1 (centres undefined)"
  LABEL: "class 0"
- MOLECULE: "Cc1ccc(C(=O)N2CCC[C@H]2c2nc(-c3ccccc3)n[nH]2)s1"
  LABEL: "class 1"
- MOLECULE: "COCCNC(=O)N1CCN(c2ncccc2-c2nnc(C(C)C)o2)CC1"
  LABEL: "class 0"
- MOLECULE: "O=C(NCc1n[nH]c(=O)c2ccccc12)C1CC(=O)N(c2ccccc2)C1 (centres undefined)"
  LABEL: "class 0"
- MOLECULE: "Cc1nn(-c2nc(CC(=O)Nc3nc(-c4ccccc4)cs3)cs2)c(C)c1Cc1ccccc1"
  LABEL: "class 2"
- MOLECULE: "Cc1cc(C)c(C)c(S(=O)(=O)N2CCC(OCc3noc(C4CCCO4)n3)CC2)c1C (centres undefined)"
  LABEL: "class 2"

Assign a bin to Cc1ccc(CNC(=O)c2[nH]c3cc(C)sc3c2CN2CCOCC2)cc1
class 1

Note: place this molecule into its band. Item: Cc1cc(C)c2c(N3CCCC3)nc(C(=O)Nc3ccc4c(c3)OCO4)nc2n1
class 0

Which bin should I file CC1(C)CC(=O)c2c(O)cc(OCC(=O)O)cc2O1 under?
class 1

Band assignment needed for Fc1cnccc1CN1CC2(CCCCC2)CC1COc1ccncc1 (centres undefined) please.
class 1
